Taken from patent EP4737445A1.

- System: Tau-BiFC cells
- experiment: Cell viability (stained nuclei count) in Tau-BiFC cells
- Assay type: cell-based
- protocolConditions: @10 µM; Tau-BiFC cell line; Forskolin-only group = 100%
propertyName: Cell viability (% @10µM) (%)
Answers are plain numbers, in %.

stdin: Tell us which Cell viability (% @10µM) value is on record for `N#CC(C#N)=NNc1ccc2nc(N3CCOCC3)[nH]c2c1`
stdout: 100

stdin: Tell us which Cell viability (% @10µM) value is on record for CC1CN(c2nc3ccc(NN=C(C#N)C#N)cc3o2)CC(C)O1 (stereo not drawn)
stdout: 100

stdin: Tell us which Cell viability (% @10µM) value is on record for `N#CC(C#N)=NNc1ccc2nc(N3C4CCC3COC4)sc2c1`
stdout: 100

stdin: Tell us which Cell viability (% @10µM) value is on record for `CC(=O)N1CCN(c2nc3ccc(NN=C(C#N)C#N)cc3s2)CC1`
stdout: 99

stdin: Tell us which Cell viability (% @10µM) value is on record for `Cn1c(N2C3CCC2COC3)nc2ccc(NN=C(C#N)C#N)cc21`
stdout: 100

Consider the record given below.
stdin: Tell us which Cell viability (% @10µM) value is on record for `N#CC(C#N)=NNc1ccc2nc(N3CCCC3)oc2c1`
stdout: 98

###

- System: Tau-BiFC cells
- experiment: Cell viability (stained nuclei count) in Tau-BiFC cells
- Assay type: cell-based
- protocolConditions: @10 µM; Tau-BiFC cell line; Forskolin-only group = 100%
propertyName: Cell viability (% @10µM) (%)
One number for each entry, in %.

# annotated cases, reported Cell viability (% @10µM) shown
stdin: Find the measured Cell viability (% @10µM) of `CN1CCN(c2nc3ccc(NN=C(C#N)C#N)cc3o2)CC1` with Tau-BiFC cells as test system.
stdout: 100

stdin: Find the measured Cell viability (% @10µM) of `CC(=O)N(N=C(C#N)C#N)c1ccc2nc(N3CCOCC3)sc2c1` with Tau-BiFC cells as test system.
stdout: 85

stdin: Find the measured Cell viability (% @10µM) of `CN1CCN(c2nc3ccc(NN=C(C#N)C#N)cc3s2)CC1` with Tau-BiFC cells as test system.
stdout: 101

stdin: Find the measured Cell viability (% @10µM) of `CN(N=C(C#N)C#N)c1ccc2nc(N3C4CCC3COC4)sc2c1` with Tau-BiFC cells as test system.
stdout: 97

stdin: Find the measured Cell viability (% @10µM) of `CC(C)N1CCN(c2nc3ccc(NN=C(C#N)C#N)cc3o2)CC1` with Tau-BiFC cells as test system.
stdout: 99

Required: Cell viability (% @10µM), one value per molecule below.
1. N#CC(C#N)=NNc1ccc2nc(N3CCCCC3)oc2c1
2. N#CC(C#N)=NNc1ccc2nc(N3CCOCC3)oc2c1

stdout:
100
100

Required: Cell viability (% @10µM), one value per molecule below.
1. N#CC(C#N)=NNc1ccc2nc(N3CCC[C@@H](F)C3)oc2c1
2. CCn1c(N2CCOCC2)nc2ccc(NN=C(C#N)C#N)cc21
3. N#CC(C#N)=NNc1ccc2sc(N3CCOCC3)nc2c1
4. N#CC(C#N)=NNc1ccc2nc(N3CCC[C@H](F)C3)oc2c1
5. CCn1c(N2CCOCC2)nc2cc(NN=C(C#N)C#N)ccc21
6. CC(=O)N1CCN(c2nc3ccc(NN=C(C#N)C#N)cc3o2)CC1

stdout:
100
98
100
100
97
100

Required: Cell viability (% @10µM), one value per molecule below.
1. CC1COCCN1c1nc2ccc(NN=C(C#N)C#N)cc2s1 (centres unmarked)
2. N#CC(C#N)=NNc1ccc2nc(N3C4CCC3COC4)oc2c1
3. N#CC(C#N)=NNc1ccc2nc(NC(=O)N3CC4CCC(C3)O4)sc2c1
4. N#CC(C#N)=NNc1ccc2nc(N3CC[C@@H](F)C3)oc2c1
5. CC1COCCN1c1nc2ccc(NN=C(C#N)C#N)cc2o1 (centres unmarked)

stdout:
1: 99; 2: 96; 3: 98; 4: 100; 5: 100

Required: Cell viability (% @10µM), one value per molecule below.
1. COC1CCN(c2nc3ccc(NN=C(C#N)C#N)cc3s2)CC1
2. N#CC(C#N)=NNc1ccc2nc(N3CCCC(F)C3)oc2c1 (centres unmarked)

stdout:
[100, 100]

###

- experiment: Liver microsomal stability, rat
- Type: in vitro ADME
- protocolConditions: 1 µM compound; 0.5 mg/mL microsomes; NADPH; 30 minutes at 37°C
- Method: Liver microsomal stability by the compounds prepared according to Examples 1 to 46 was confirmed. […] The amount of remaining substrate through the reaction was analyzed using a Shimadzu Nexera XR system and TSQ vantage (Thermo). […] The calculated results are shown in Table 5 below: Liver microsomal stability data of novel compounds from […] (human, rat, and mouse).
propertyName: Rat microsomes (% remaining)
Give bare numbers, in % remaining.

# annotated cases, reported Rat microsomes (% remaining) shown
stdin: Tell us which Rat microsomes (% remaining) value is on record for `N#CC(C#N)=NNc1ccc2oc(N3CCOCC3)nc2c1`
stdout: 73.0

stdin: Tell us which Rat microsomes (% remaining) value is on record for `CCn1c(N2CCOCC2)nc2ccc(NN=C(C#N)C#N)cc21`
stdout: 81.7

stdin: Tell us which Rat microsomes (% remaining) value is on record for `COC1CCN(c2nc3ccc(NN=C(C#N)C#N)cc3o2)CC1`
stdout: 59.3

Required: Rat microsomes (% remaining), one value per compound below.
1. CC(=O)N1CCN(c2nc3ccc(NN=C(C#N)C#N)cc3o2)CC1
2. COC1CCN(c2nc3ccc(NN=C(C#N)C#N)cc3s2)CC1
3. N#CC(C#N)=NNc1ccc2nc(N3CCOCC3)sc2c1
4. N#CC(C#N)=NNc1ccc2nc(NC(=O)N3CCOCC3)sc2c1
5. CC1COCCN1c1nc2ccc(NN=C(C#N)C#N)cc2s1 (stereo not shown)

stdout:
1. 88.3
2. 17.7
3. 55.2
4. 96.0
5. 47.7

Required: Rat microsomes (% remaining), one value per compound below.
1. Cn1c(N2CCOCC2)nc2cc(NN=C(C#N)C#N)ccc21
2. Cn1c(N2C3CCC2COC3)nc2cc(NN=C(C#N)C#N)ccc21

stdout:
1. 66.1
2. 74.1

###

- experiment: Liver microsomal stability, mouse
- Assay type: in vitro ADME
- protocolConditions: 1 µM compound; 0.5 mg/mL microsomes; NADPH; 30 minutes at 37°C
propertyName: Mouse microsomes (% remaining)
Numbers only, in % remaining.

stdin: Tell us which Mouse microsomes (% remaining) value is on record for CC1CN(C(=O)Nc2nc3ccc(NN=C(C#N)C#N)cc3s2)CC(C)O1 (centres unmarked)
stdout: 88.4

stdin: Tell us which Mouse microsomes (% remaining) value is on record for `N#CC(C#N)=NNc1ccc2oc(N3CCOCC3)nc2c1`
stdout: 80.6

stdin: Tell us which Mouse microsomes (% remaining) value is on record for `Cn1c(N2C3CCC2COC3)nc2ccc(NN=C(C#N)C#N)cc21`
stdout: 78.2

stdin: Tell us which Mouse microsomes (% remaining) value is on record for `N#CC(C#N)=NNc1ccc2nc(N3C4CCC3COC4)sc2c1`
stdout: 87.8

stdin: Tell us which Mouse microsomes (% remaining) value is on record for `CCn1c(N2CCOCC2)nc2cc(NN=C(C#N)C#N)ccc21`
stdout: 89

Continuing:
stdin: Tell us which Mouse microsomes (% remaining) value is on record for CC1CN(c2nc3ccc(NN=C(C#N)C#N)cc3s2)CC(C)O1 (centres unmarked)
stdout: 87.3

###

- measuredOn: CYP3A4 (Homo sapiens)
- Construct: human liver microsomes (0.25 mg/mL); from tissue; host or cells: human liver microsomes
- Sequence (P08684 whole entry): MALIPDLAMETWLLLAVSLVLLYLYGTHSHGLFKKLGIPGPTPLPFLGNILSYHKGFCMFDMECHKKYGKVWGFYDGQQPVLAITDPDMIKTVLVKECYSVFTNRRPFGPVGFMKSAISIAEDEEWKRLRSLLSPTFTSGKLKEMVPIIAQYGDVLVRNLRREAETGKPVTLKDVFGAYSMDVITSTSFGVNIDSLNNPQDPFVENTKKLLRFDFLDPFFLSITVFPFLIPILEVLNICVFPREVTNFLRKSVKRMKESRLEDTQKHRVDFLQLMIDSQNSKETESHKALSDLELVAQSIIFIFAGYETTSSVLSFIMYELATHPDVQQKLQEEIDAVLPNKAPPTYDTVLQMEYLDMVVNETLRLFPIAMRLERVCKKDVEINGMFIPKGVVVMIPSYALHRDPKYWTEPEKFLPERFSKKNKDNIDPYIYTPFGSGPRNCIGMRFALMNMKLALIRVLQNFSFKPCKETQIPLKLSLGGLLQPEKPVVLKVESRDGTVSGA
- experiment: CYP isoenzyme activity inhibition in human liver microsomes, CYP3A4
- Assay type: in vitro ADME
- protocolConditions: 10 µM compound; human liver microsomes 0.25 mg/mL; relative to control without compound
Label met when CYP3A4 (% activity) >= 90 % activity; otherwise not met.

Worked set:
stdin: Tell me whether CYP3A4 (% activity) is at least 90 % activity here: `N#CC(C#N)=NNc1ccc2oc(N3CCOCC3)nc2c1`
stdout: met

stdin: Tell me whether CYP3A4 (% activity) is at least 90 % activity here: `N#CC(C#N)=NNc1ccc2nc(NC(=O)N3CC4CCC(C3)O4)sc2c1`
stdout: not met

stdin: Tell me whether CYP3A4 (% activity) is at least 90 % activity here: CC1CN(c2nc3ccc(NN=C(C#N)C#N)cc3o2)CCO1 (stereo not shown)
stdout: not met

stdin: Tell me whether CYP3A4 (% activity) is at least 90 % activity here: `Cn1c(N2CCOCC2)nc2cc(NN=C(C#N)C#N)ccc21`
stdout: met

stdin: Tell me whether CYP3A4 (% activity) is at least 90 % activity here: `Cn1c(N2C3CCC2COC3)nc2cc(NN=C(C#N)C#N)ccc21`
stdout: not met

stdin: Tell me whether CYP3A4 (% activity) is at least 90 % activity here: `CCn1c(N2CCOCC2)nc2ccc(NN=C(C#N)C#N)cc21`
stdout: not met

Continuing:
stdin: Tell me whether CYP3A4 (% activity) is at least 90 % activity here: `Cn1c(N2C3CCC2COC3)nc2ccc(NN=C(C#N)C#N)cc21`
stdout: not met
